// data source = ChEMBL document CHEMBL1201862

# System: PC-3
# experiment-notes: NCI tumour cell line growth inhibition, 48 h
Activity calls are given as the source filed them. Cut-off read from the data, not from the text of the source: active = GI50 up to about 1.1 µM and inactive = higher.
Labels: T (active), F (inactive)

compound: CN(C)CCN(/C(=N/c1ccccc1)N1CCCC1)c1ccccc1
qualitative-label: F

compound: COC(=O)C1(Cc2ccc3c(c2)CCC3)Cc2ccccc2C1
qualitative-label: F

compound: COc1ccc(/N=C(/SS/C(=N/c2ccc(OC)cc2)c2ccc([N+](=O)[O-])o2)c2ccc([N+](=O)[O-])o2)cc1
qualitative-label: T

compound: CC1OC(OC2C(O)COC(OC3C(C)OC(OC4C(OC(=O)[C@]56CCC(C)(C)C[C@@H]5C5=CCC7[C@@]8(C)C[C@H](O)[C@H](OC9OC(CO)C(O)C(O)C9O)[C@@](C)(CO)[C@@H]8CC[C@@]7(C)[C@]5(C)CC6)OCC(O)C4O)C(O)C3O)C2O)C(O)C(O)C1O (some centres undefined)
qualitative-label: F

compound: N#Cc1sc2c(c1OC(=O)c1ccco1)c(=O)n(-c1ccccc1)c(=S)n2-c1ccccc1
qualitative-label: F

compound: CC1(C)OC2CN(C(=O)OCc3ccccc3)C(CO)C2O1 (centres undefined)
qualitative-label: F

compound: Cc1ccc(C2=Nc3c(c(C)nn3-c3ccccc3)N=C(C(=O)O)C2)cc1
qualitative-label: F

compound: c1ccc2c(c1)CCN2CCc1c[nH]c2ccccc12
qualitative-label: F

compound: COc1ccccc1N1C(=O)/C(=C\c2ccccc2)SC1c1cc(OC)c(OC)c(OC)c1 (centres undefined)
qualitative-label: F

compound: COc1ccc2nc3ccc(OC)cc3c(SCC3CO3)c2c1 (centres undefined)
qualitative-label: F

compound: COC(=O)c1ccc(-n2c(C)nc(=O)c(-c3ccccc3)c2C)cc1
qualitative-label: F

compound: COC(=O)CNC(=O)CCSc1nnc(COc2ccc(Cl)cc2)n1-c1ccccc1
qualitative-label: F

compound: CC(C)(C)OC(=O)NCC(c1c[nH]c2ccccc12)c1c[nH]c2ccccc12
qualitative-label: F

compound: CC(=O)O[C@H]1C(=O)[C@@]2(C)[C@H]([C@H](OC(=O)c3ccccc3)[C@]3(O)C[C@H](OC(=O)[C@H](O)[C@@H](NC(=O)CC(C)(C)C)c4ccccc4)C(C)=C1C3(C)C)C1(OC(C)=O)CO[C@@H]1C[C@@H]2O (some centres undefined)
qualitative-label: T

compound: Oc1ccc(Cl)cc1C1=NC(NCN2CCN(CNC3=NC(c4ccccc4)CC(c4cc(Cl)ccc4O)=N3)CC2)=NC(c2ccccc2)C1 (centres undefined)
qualitative-label: F

compound: CC(C)c1nc2cc(C(F)(F)F)ccc2[nH]c1=O
qualitative-label: F

compound: O=C1CSC2(CCN(CCCN3c4ccccc4Sc4ccc(Cl)cc43)CC2)N1
qualitative-label: F

compound: O=C(c1ccccc1)c1ccc2c(c1)nc1n2C(c2c(F)cccc2F)SC1 (centres undefined)
qualitative-label: F

compound: COc1ccc2nc3cc(Cl)ccc3c(NCCCN(CCCl)CCCl)c2c1
qualitative-label: T

---

# Test system: CCRF-CEM
# experiment-notes: NCI tumour cell line growth inhibition, 48 h
The source made the active and inactive calls. No stated cut-off is given here; in the data, active = GI50 up to about 1.1 µM and inactive = higher.
Outcome codes: y (active), n (inactive)

compound: CC(C)c1nc2cc(C(F)(F)F)ccc2[nH]c1=O
target-or-test-system: CCRF-CEM
qualitative-label: y
//
compound: COCc1cc2c(s1)C(=O)C1=C(C2=O)C2(C=C(Br)C(=O)C(Br)=C2)CCN1
target-or-test-system: CCRF-CEM
qualitative-label: n
//
compound: N#C/C(C(=O)Nc1ccccc1)=C(/N)N1CCOCC1
target-or-test-system: CCRF-CEM
qualitative-label: n
//
compound: CC(CN(C)C)C(=O)c1ccccc1 (stereo unspecified)
target-or-test-system: CCRF-CEM
qualitative-label: n
//
compound: COc1ccc(C2S/C(=C\c3cccc(OC)c3)C(=O)N2NC(=O)Cc2ccccc2)cc1 (stereo unspecified)
target-or-test-system: CCRF-CEM
qualitative-label: n
//
compound: CCC1OC(=O)C(C)C(OC2CC(C)(O)C(O)C(C)O2)C(C)C(O)C(C)(O)CC(C)C(=O)C(C)C(O)C1C (stereo unspecified)
target-or-test-system: CCRF-CEM
qualitative-label: n
